Where these numbers come from: PubChem BioAssay AID1159580

experiment: chemical genetic growth profiling, strain panel (AID 1159580);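 note: tested at 20 µM; growth read once vehicle control cultures reached saturation at 30 °C; 1 = growth at the plate median or of vehicle wells; lower values mean less growth of the strain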; conditions: S. cerevisiae deletion strains, growth OD, locus YOR083W, strain WHI5 (second series), hits give low values
The whole screen tested about 5,500 compounds, of which about 2,000 (36%) were called active. Roughly 18% stayed inconclusive and do not appear here. The list shows a part of the results.
Reported normalized growth values for the following molecules.
Lab note: jot down the number only; don't add units.

*Q* Entry under review: Cn1cc(C2=C(c3ccc(Cl)cc3Cl)C(=O)NC2=O)c2ccccc21 . Reported normalized growth?
*A* 1.01

* * *

# Lookup of reported normalized growth keyed by entry
assay: chemical genetic growth profiling, strain panel (AID 1159580);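 note: tested at 20 µM; growth read once vehicle control cultures reached saturation at 30 °C; 1 = growth at the plate median or of vehicle wells; lower values mean less growth of the strain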; settings: S. cerevisiae deletion strains, growth OD, locus YHR027C, strain rpn1, hits give low values
Out of some 5,500 compounds screened, about 2,000 (36%) were called active. Another 18% or so got no clear call; they are omitted. The list shows a part of the results.
Response field accepts a number only; no unit should be typed.

The following compounds have reported results that may help.
C=CCc1ccc2c(c1)OCO2 ... 1.02
COc1cc(O)c2c(=O)cc(C)oc2c1CC=C(C)C ... 0.985
C[CH2][Hg][S]c1ccccc1C(=O)O ... 0.0612
COc1ccc(-c2cc(=O)c3c(O)cc(OC)c(OC)c3o2)c(OC)c1 ... 0.985
COC(=O)[C@@H]1C(O)CC[C@H]2CN3CCc4c([nH]c5ccccc45)[C@@H]3C[C@@H]21 (stereo not given in full) ... 1.02

*Q* What normalized growth value was documented for this compound, CCC1(C)CC(=O)NC1=O (stereo not given) ?
*A* 0.978

*Q* For COC(=O)C1=COC(OC2OC(CO)C(O)C(O)C2O)C2C(C)CC(=O)C12O (stereo not given) , what is its reported normalized growth?
*A* 0.967

*Q* Give the measured normalized growth of O=C(O)c1ccccc1OP(=O)(O)O .
*A* 1

*Q* For Cc1cc(=O)c2c(O)cc(O)c(C)c2o1 , what is its reported normalized growth?
*A* 0.964

*Q* Given the compound NC/C=C/C(=O)O , what is its reported normalized growth?
*A* 1.01

*Q* Item under review: CCCCOc1ccc(OCCCN2CCOCC2)cc1 . Reported normalized growth?
*A* 0.953

*Q* What normalized growth value was documented for this compound, C=C1CC[C@H](O)C/C1=C/C=C1\CCC[C@]2(C)C([C@H](C)/C=C/[C@H](C)C(C)C)CC[C@@H]12 (stereo not given in full) ?
*A* 1.03

*Q* Could you tell me which normalized growth is on file for OCCN(CCO)c1nc(N2CCCCC2)c2nc(N(CCO)CCO)nc(N3CCCCC3)c2n1 ?
*A* 0.984

*Q* Fill in the blank: the reported normalized growth of CC1(C)S[C@@H]2[C@H](NC(=O)[C@H](NC(=O)N3CCNC3=O)c3ccccc3)C(=O)N2C1C(=O)O (stereo not given in full) is ____.
*A* 0.966

*Q* Give the measured normalized growth of CC(C)(CO)C(O)C(=O)NCCCO (stereo not given) .
*A* 1.02

*Q* Need normalized growth, item C[C@@H]1O[C@@H](O[C@H]2[C@@H](Oc3cc(O)c4c(c3)O[C@H](c3ccc(O)cc3)CC4=O)O[C@H](CO)[C@@H](O)[C@@H]2O)[C@H](O)[C@H](O)[C@H]1O
*A* 0.959
